# TARGET_OF_ASSAY: T1, Erh1 D68A (S. pombe, UniProt G2TRN4 1-104, D68A)
# T1 construct: Erh1, S. pombe, residues 1-104, point mutant made with the MutanBEST kit; source: E. coli BL21 (Gold), purified (Ni-chelating resin, size-exclusion chromatography)
# T1 sequence (looked up): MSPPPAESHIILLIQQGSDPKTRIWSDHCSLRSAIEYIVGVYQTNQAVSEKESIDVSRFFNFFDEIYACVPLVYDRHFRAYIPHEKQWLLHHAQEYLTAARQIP
# ASSAY_EXPLANATION: ITC; SUMO-tagged Mmi1 peptides titrated into Erh1 in the sample cell; MicroCal iTC200, 293 K; 20 mM Tris-HCl pH 7.5, 150 mM NaCl; single-site binding model
# TEST_CONTEXT: both partners purified
QUANTITY_KIND: Kd (µM)
Only the number, expressed in µM, is required.

Record GKYDFSRHCTDYGHSYEWPYFRSLRRES (domain or fragment, S. pombe, UniProt O74958 95-122, looked up, SUMO stands after the His6 tag at the N-terminus; also called Mmi1wt; source: E. coli BL21 (Gold), purified (Ni-chelating resin, size-exclusion chromatography); not shown: SUMO, N-terminal, kept) [SUMO-tagged Mmi1 95-122] . Reported Kd: 3.96
